Experiment description: self-splicing fitness, log relative to wild type (ln ratio); higher = more splicing; Tetrahymena group I intron in knt gene, E. coli kanamycin selection, DiMSum; sequences stand for … in CUCUCU…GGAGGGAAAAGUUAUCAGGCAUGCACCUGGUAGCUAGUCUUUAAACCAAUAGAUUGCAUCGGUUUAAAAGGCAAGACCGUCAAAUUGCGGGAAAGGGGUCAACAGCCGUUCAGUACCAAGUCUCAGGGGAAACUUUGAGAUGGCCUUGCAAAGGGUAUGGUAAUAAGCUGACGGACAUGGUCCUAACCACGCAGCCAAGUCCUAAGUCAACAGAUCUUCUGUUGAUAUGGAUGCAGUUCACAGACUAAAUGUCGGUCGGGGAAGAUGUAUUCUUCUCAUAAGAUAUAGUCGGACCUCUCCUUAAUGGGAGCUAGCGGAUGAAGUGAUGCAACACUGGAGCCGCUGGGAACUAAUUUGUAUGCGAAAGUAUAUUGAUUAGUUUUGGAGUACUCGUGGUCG;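 also: selection with 25 µg/mL kanamycin versus none on LB agar overnight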
Condition description: 37 °C
Each item that follows carries a reported self-splicing fitness (ln).
// print number alone

# annotated cases, reported self-splicing fitness (ln) shown
Input sequence | self-splicing fitness (ln)
CGCAAGCAAUAUUACGGAUC | -2.21
AUGCAGCAAUAUUACGAAAC | -0.989
CAGCAGCAAUAUUACGUGAG | -0.267

Return self-splicing fitness (ln) for the following sequence: AGGAAGCAAUAUUACGAGAU -1.1

Return self-splicing fitness (ln) for the following sequence: AAUUAGCAAUAUUACGCCUA 0.297

Return self-splicing fitness (ln) for the following sequence: CCCGAGCAAUAUUACGGUCU -1.85
